The reported measurements were obtained from paper PMC12855868.

# key: entry, value: pKd
Target: T1, FDXR (a.a 33-491), tagless (human, UniProt P22570 33-491, labelled with the RED-NHS 2nd generation protein labeling kit)
T1 construct: ferredoxin reductase (FDXR), human, residues 33-491, lacking the mitochondrial transit peptide; pDWSUMO; Cleavage of the SUMO tag by ULP1 leaves a Gly-His appendage at the N-terminus; also called ferredoxin reductase; mitochondrial NADPH-dependent ferredoxin reductase; source: E. coli BL21 (DE3), purified; not shown: His6-SUMO, N-terminal, cleaved
T1 sequence (looked up): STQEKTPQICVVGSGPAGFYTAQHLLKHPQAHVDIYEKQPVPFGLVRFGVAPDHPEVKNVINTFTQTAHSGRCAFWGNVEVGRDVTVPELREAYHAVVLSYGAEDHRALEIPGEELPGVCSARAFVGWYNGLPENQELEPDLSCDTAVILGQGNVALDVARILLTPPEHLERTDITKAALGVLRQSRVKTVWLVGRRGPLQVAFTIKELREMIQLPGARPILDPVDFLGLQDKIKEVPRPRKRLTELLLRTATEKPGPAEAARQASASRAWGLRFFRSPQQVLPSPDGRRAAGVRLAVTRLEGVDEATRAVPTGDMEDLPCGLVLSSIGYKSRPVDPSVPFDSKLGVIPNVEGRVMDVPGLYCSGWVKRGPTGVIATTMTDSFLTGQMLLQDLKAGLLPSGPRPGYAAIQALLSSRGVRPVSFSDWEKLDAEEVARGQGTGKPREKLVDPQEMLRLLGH
Assay: Temperature-Related Intensity Change (TRIC) fluorescence; 50 nM RED-NHS-labelled tagless FDXR as target, His-tagged FDX1 WT or variant serially diluted (11 points from 54-68 µM); anaerobic; 25 mM MOPS pH 7.5, 125 mM KCl, 125 mM NaCl, 5% glycerol, 0.05% Tween; 30 min at room temperature, read at 22 °C; Dianthus NT.23
Conditions: both partners purified
# pKd is unitless: minus log10 of the molar concentration; print number only

binder	val
FDX1 D139R (aa 61-184), N-terminal hexa-histidine tag (domain or fragment, human, UniProt P10109 61-184, looked up, ferredoxin 1 (FDX1), human, residues 61-184, lacking the mitochondrial transit peptide; pET28a; Carries a reconstituted Fe-S cluster; Labelled with Red-Tris-NTA dye in the LIAS assay only; source: E. coli BL21 (DE3) carrying pDB1282, purified, iron-sulfur cluster reconstituted; not shown: His6, N-terminal, kept) SSSEDKITVHFINRDGETLTTKGKVGDSLLDVVVENNLDIDGFGACEGTLACSTCHLIFEDHIYEKLDAITDEENDMLRLAYGLTDRSRLGCQICLTKSMDNMTVRVPETVADARQSIDVGKTS	5.68
FDX1 WT (aa 61-184), N-terminal hexa-histidine tag (domain or fragment, human, UniProt P10109 61-184, looked up, ferredoxin 1 (FDX1), human, residues 61-184, lacking the mitochondrial transit peptide; pET28a; Carries a reconstituted Fe-S cluster; In the FDX1-LIAS TRIC assay it was labelled on the His tag with the Red-Tris-NTA 2nd generation dye; in the FDXR assay it was the unlabelled ligand; also called ferredoxin 1; source: E. coli BL21 (DE3) carrying pDB1282, purified, iron-sulfur cluster reconstituted; …) SSSEDKITVHFINRDGETLTTKGKVGDSLLDVVVENNLDIDGFGACEGTLACSTCHLIFEDHIYEKLDAITDEENDMLDLAYGLTDRSRLGCQICLTKSMDNMTVRVPETVADARQSIDVGKTS	5.82
FDX1 D139A (aa 61-184), N-terminal hexa-histidine tag (domain or fragment, human, UniProt P10109 61-184, looked up, ferredoxin 1 (FDX1), human, residues 61-184, lacking the mitochondrial transit peptide; pET28a; Carries a reconstituted Fe-S cluster; Labelled with Red-Tris-NTA dye in the LIAS assay only; source: E. coli BL21 (DE3) carrying pDB1282, purified, iron-sulfur cluster reconstituted; not shown: His6, N-terminal, kept) SSSEDKITVHFINRDGETLTTKGKVGDSLLDVVVENNLDIDGFGACEGTLACSTCHLIFEDHIYEKLDAITDEENDMLALAYGLTDRSRLGCQICLTKSMDNMTVRVPETVADARQSIDVGKTS	5.82
FDX1 D136R (aa 61-184), N-terminal hexa-histidine tag (domain or fragment, human, UniProt P10109 61-184, looked up, ferredoxin 1 (FDX1), human, residues 61-184, lacking the mitochondrial transit peptide; pET28a; Carries a reconstituted Fe-S cluster; Labelled with Red-Tris-NTA dye in the LIAS assay only; source: E. coli BL21 (DE3) carrying pDB1282, purified, iron-sulfur cluster reconstituted; not shown: His6, N-terminal, kept) SSSEDKITVHFINRDGETLTTKGKVGDSLLDVVVENNLDIDGFGACEGTLACSTCHLIFEDHIYEKLDAITDEENRMLDLAYGLTDRSRLGCQICLTKSMDNMTVRVPETVADARQSIDVGKTS	5.66

So for FDX1 D136A (aa 61-184), N-terminal hexa-histidine tag (domain or fragment, human, UniProt P10109 61-184, looked up, ferredoxin 1 (FDX1), human, residues 61-184, lacking the mitochondrial transit peptide; pET28a; Carries a reconstituted Fe-S cluster; Labelled with Red-Tris-NTA dye in the LIAS assay only; source: E. coli BL21 (DE3) carrying pDB1282, purified, iron-sulfur cluster reconstituted; not shown: His6, N-terminal, kept) SSSEDKITVHFINRDGETLTTKGKVGDSLLDVVVENNLDIDGFGACEGTLACSTCHLIFEDHIYEKLDAITDEENAMLDLAYGLTDRSRLGCQICLTKSMDNMTVRVPETVADARQSIDVGKTS , the logged pKd turned out to be 5.74
